B1: EPB41L3 (parent)
chain: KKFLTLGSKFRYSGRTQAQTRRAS

variants of: B1; assay: protein stability index of a GFP-peptide fusion (GPS, HEK-293T) (PSI 1-6); higher = more stable; settings: c terminus: a fixed tail appended;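 note: lentivirally expressed fusions sorted by FACS into six bins by GFP to DsRed ratio, PSI derived from sequencing read proportions per bin multiplied by bin number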
Measured metric: protein stability index

Reference set (5 entries):
S24L 2
R11P 3.08
G14Q 3.56
K9H 2.11
K9A 1.96

Dear reader, for each entry below, please note its protein stability index.
1. A18S
2. K9C
3. S8K
4. R11T
5. S8M
6. L6M
7. G7D
8. T20N

1. 3.19
2. 1.66
3. 2.56
4. 3.6
5. 2.74
6. 2.64
7. 3.3
8. 2.62

Dear reader, for each entry below, please note its protein stability index.
1. Q19C
2. G14R
3. L6Y
4. G14E
5. F3S

[2.77, 3.38, 2.48, 3.75, 3.78]

Dear reader, for each entry below, please note its protein stability index.
1. K1L
2. K1G
3. T5C
4. K9V
5. A23W
6. Q17Y

1.91
3.83
2.21
2.23
3.26
2.12
